Tested on: P12-Ichikawa
Assay: cell viability relative to DMSO control; higher = less cytotoxic
Conditions: RPMI 5 mM glucose + 10% dialyzed FBS; 48 h; 0.569 µM
readout: cell viability (%)
Just the number in %, nothing appended.

# compound, value units, cell viability
records = [
    ("Cc1c(CN2CCN(C(=O)[C@H](C)O)CC2)sc2c(N3CCOCC3)nc(-c3cnc(N)nc3)nc12", "%", 63.1),
    ("Oc1ccc2c3c1O[C@H]1c4[nH]c5c(c4C[C@@]4(O)[C@@H](C2)N(CC2CC2)CC[C@]314)C[C@@]1(O)[C@H]2Cc3ccc(O)c4c3[C@@]1(CCN2CC1CC1)[C@H]5O4", "%", 117),
    ("CCN(CC)CC#CCOC(=O)C(O)(c1ccccc1)C1CCCCC1 (configuration not stated)", "%", 125),
    ("CN1[C@@H]2CC[C@H]1CC(OC(=O)c1c[nH]c3ccccc13)C2 (some centres not stated)", "%", 120),
    ("Cc1nc(NC(=O)N2CCC[C@H]2C(N)=O)sc1-c1ccnc(C(C)(C)C(F)(F)F)c1", "%", 86.7),
    ("CC\\1=C(C(\\N=C(/N1)C2=CC(=NC=C2)Cl)C3=C(F)C=C(Cl)C=C3)/C(=O)NC4=C(F)C=C5[NH]N=CC5=C4 (configuration not stated)", "%", 121),
    ("COc1cc2nc(N(C)CCCNC(=O)C3CCCO3)nc(N)c2cc1OC (configuration not stated)", "%", 79.5),
    ("CCCCn1c(=O)n(Cc2ccccc2F)c(=O)c2nc(Cc3ccc(NC(C)=O)cc3)[nH]c21", "%", 86.3),
]

[in] Any idea what cell viability was measured for CC(C)C(C)/C=C/C(C)C1CCC2C3=CC=C4CC(O)CCC4(C)C3CCC21C (configuration not stated) ?
[out] 97.5

[in] Repeat for the following compound: "CC\1=C/C=C\C=[N]1[Pt](N)(Cl)Cl"
[out] 110

[in] Also check "CC(C)[C@@H](N(CCCN)C(=O)C1=CC=C(C)C=C1)C/2=N/C3=CC(=CC=C3C(=O)N2CC4=CC=CC=C4)Cl"
[out] 11.1

[in] What do you have for "CC1=C(/C=C/C(C)=C/C=C/C(C)=C/C=C/C=C(C)/C=C/C=C(C)/C=C/C2=C(C)CCCC2(C)C)C(C)(C)CCC1" ?
[out] 107

[in] Could you do the same for "C[C@@H](NC1=CC=CC=C1C(O)=O)C/2=C/C(=C\N3C(=O)/C=C(\N=C23)N4CCOCC4)C" , please?
[out] 80

Ref: the supplement of paper PMC11451515
